Task for the reader: assign each of the following binders its reported Kd.
Target: MS2 coat protein, dlFG mutant (Escherichia phage MS2, UniProt P03612, del68-81insG)
Test: 4 mM Mg2+; no ligand; RNA-MaP array; 100 mM Tris-HCl pH 7.5, 80 mM KCl, 4 mM MgCl2, 0.1 mg/mL BSA, 1 mM DTT, 0.01 mg/mL yeast tRNA, 0.01% Tween-20; protein 1.5 nM to 3 uM; 37 C (Table S3)
Details: chain copies: 2; label: tethered by stalled RNA polymerase
The response must be a number in nM with no trailing unit.

Req: I have this binder here, Eterna 6428572 (Exclusion NG 2) (ssRNA) RNA: GUCUCCGCUCGAGGAUAUAGCUGCAUGUAGUGUCCUGAGGCACAUGAGGAUCACCCAUGUGUAGGCUAGAAGGCGACGGACACU , and I need its recorded Kd.
Resp: 11

Req: I have this binder here, Eterna 7730292 (Same State - Arginine B) (ssRNA) RNA: UGUAUGGACUGAAGGAGCGGAAAAUAAACCUGAGGAUCACCCGGGUAAUAGGCGAAAGCCAUCCAGGUAGGUCGCAGUCCAUACU , and I need its recorded Kd.
Resp: 279

Req: I have this binder here, Eterna 6146924 (Exclusion NG 1) (ssRNA) RNA: GUGACGGAUGUAGGAUAUGCUGACCAAUGGUCAGCAGAAGGACAUGAGGAUCACCCAUGUCAUCCUUAUAAUAAAUACCGUCAC , and I need its recorded Kd.
Resp: 13.7

Req: I have this binder here, Eterna 5984275 (Exclusion 4) (ssRNA) RNA: AUUGUGUGAGGAUAUUAGCAGUAGACGAAUGGAGUCGUGGCUGAGAAGGCACAUGAGGAUCACCCAUGUUCCUU , and I need its recorded Kd.
Resp: 16.8

Req: I have this binder here, Eterna 9910 (Sensor v3, turn-off variant 1) (ssRNA) RNA: GAUUAUGCAAGCUUUCGGGACAUGAGGAUCACCCAUGUUCGUCUUAUUGAUCUAGGUACGCUGACGUACCUAGAUCU , and I need its recorded Kd.
Resp: 16.5

Req: I have this binder here, Eterna 11801 (Exclusion 2) (ssRNA) RNA: AGUAACAGAGGAUAUACUGUUUUAUGUGUUUAUUAUUUUGAACAUGAGGAUCACCCAUGUAGAAGGCUGAAUAA , and I need its recorded Kd.
Resp: 23.2

Req: I have this binder here, Eterna 7609491 (Same State - Tryptophan A) (ssRNA) RNA: ACAUGAGGAUCACCCAUGUUUGUUGUUCCUCGAGGACCGGUACGGCCGCCACUCGAACGAGUGGCACGCGAGUGCGCACUCGCGU , and I need its recorded Kd.
Resp: 12.3

Req: I have this binder here, Eterna 7730917 (Exclusion - Tryptophan A) (ssRNA) RNA: AGACUGUCUUCGGACAGUCCGGACAGCCCGCGAGGACCGGUACGGCCGCCACUCGCGUGAGGAUCACCCAUGCGAGGCUGUCCGA , and I need its recorded Kd.
Resp: 34.7

Req: I have this binder here, Eterna 6030125 (Exclusion 6) (ssRNA) RNA: GUGCGUGGCUAGGAUAUUGUGGAGUUUUGUCAGCGAGAAGGAGCCACAUGAGGAUCACCCAUGUGGUGUUGCUC , and I need its recorded Kd.
Resp: 175

Req: I have this binder here, Eterna 6061522 (Exclusion 3) (ssRNA) RNA: AAUUCGGCAGGAUAUACAUGAGGAUCACCCAUGUAAAUUUUUCGUUUAACUUGAAUGUGUAGAAGGGCCAUUUA , and I need its recorded Kd.
Resp: 22.8
